Origin of values: ChEMBL document CHEMBL4819115

Test: Intrinsic clearance in rat microsomes
Assay type: ADME, Microsome

# CHEM SMILES, microsomal CLint / µL/min/mg
measured = [
    ("Cc1nn(C(C)C)c(C)c1-c1nc2nccc(-c3ccc4c(c3)CCCC[C@H]4NC(=O)c3nc(C(C)(C)C)no3)c2[nH]1", 67),
]

----------
Experiment: Stability of the compound in mouse plasma assessed as parent compound remaining after 4 hrs
Type: ADME, cell-free
Settings: read-out: Stabilty

# CHEM SMILES, remaining at 4 h
data = [
    ("Cc1nn(C(C)C)c(C)c1-c1nc2nccc(-c3ccc4c(c3)CCCC[C@H]4NC(=O)c3nc(C(C)(C)C)no3)c2[nH]1", "> 85%"),
]

----------
Experiment: Volume of distribution at steady state in rat at 0.2 mg/kg, iv
Assay type: ADME, organism-based
Conditions: in vivo, read-out: Vdss
METRIC: Vd (L/kg)

# CHEM SMILES, UNIT ABBREVIATION, VALUE MEASURED
measured = [
    ("Cc1nn(C(C)C)c(C)c1-c1nc2nccc(-c3ccc4c(c3)CCCC[C@H]4NC(=O)c3nc(C(C)(C)C)no3)c2[nH]1", "L/kg", 2.62),
]

----------
Test: Half life in rat at 10 mg/kg, po
Type: ADME, organism-based
Conditions: in vivo

# CHEM SMILES, UNIT ABBREVIATION, half-life
records = [
    ("Cc1nn(C(C)C)c(C)c1-c1nc2nccc(-c3ccc4c(c3)CCCC[C@H]4NC(=O)c3nc(C(C)(C)C)no3)c2[nH]1", "h", 1.93),
]

----------
Experiment: AUC(0 to 4 hrs) in rat at 0.2 mg/kg, iv
Assay type: ADME, organism-based
Design: time < 4 hr, route intravenous, dose 0.2 mg/kg
Conditions: in vivo

# CHEM SMILES, AUC / ng·h/mL
records = [
    ("Cc1nn(C(C)C)c(C)c1-c1nc2nccc(-c3ccc4c(c3)CCCC[C@H]4NC(=O)c3nc(C(C)(C)C)no3)c2[nH]1", 79),
]

----------
Assay: Intrinsic clearance in human microsomes
Type: ADME, Microsome

# CHEM SMILES, microsomal CLint [µL/min/mg]
records = [
    ("Cc1nn(C(C)C)c(C)c1-c1nc2nccc(-c3ccc4c(c3)CCCC[C@H]4NC(=O)c3nc(C(C)(C)C)no3)c2[nH]1", 32),
]

----------
Experiment: Intrinsic clearance in mouse microsomes
Format: ADME, Microsome
METRIC: microsomal CLint

# CHEM SMILES, VALUE MEASURED
measured = [
    ("Cc1nn(C(C)C)c(C)c1-c1nc2nccc(-c3ccc4c(c3)CCCC[C@H]4NC(=O)c3nc(C(C)(C)C)no3)c2[nH]1", "75 µL/min/mg"),
]

----------
Assay: AUC(0 to 6 hrs) in rat at 10 mg/kg, po
Assay type: ADME, organism-based
Design: time < 6 hr, route oral, dose 10 mg/kg
Details: in vivo
METRIC: AUC (ng·h/mL)

# CHEM SMILES, VALUE MEASURED
measured = [
    ("Cc1nn(C(C)C)c(C)c1-c1nc2nccc(-c3ccc4c(c3)CCCC[C@H]4NC(=O)c3nc(C(C)(C)C)no3)c2[nH]1", 3030),
]

----------
Test: Cmax in rat at 10 mg/kg, po
Format: ADME, organism-based
Set-up: route oral, dose 10 mg/kg
Conditions: in vivo

# CHEM SMILES, Cmax, µg/mL
measured = [
    ("Cc1nn(C(C)C)c(C)c1-c1nc2nccc(-c3ccc4c(c3)CCCC[C@H]4NC(=O)c3nc(C(C)(C)C)no3)c2[nH]1", 0.849),
]
